- Tested on: human FPRL2 (Homo sapiens, UniProt P25089)
- Sequence (P25089 whole entry): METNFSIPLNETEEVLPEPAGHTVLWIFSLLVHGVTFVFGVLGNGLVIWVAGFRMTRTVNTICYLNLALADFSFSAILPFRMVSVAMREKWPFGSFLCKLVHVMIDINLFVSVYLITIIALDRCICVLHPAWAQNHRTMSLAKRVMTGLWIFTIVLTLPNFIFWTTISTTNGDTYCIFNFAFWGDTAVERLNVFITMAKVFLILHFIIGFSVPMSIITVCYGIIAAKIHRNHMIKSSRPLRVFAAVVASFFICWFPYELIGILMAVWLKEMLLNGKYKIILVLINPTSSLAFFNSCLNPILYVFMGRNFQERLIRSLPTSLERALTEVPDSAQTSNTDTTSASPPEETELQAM
- Test protocol: Intracellular calcium measurements (FLIPR), agonistic activity in HEK293-hFPRL2-Gα16 cells
- Assay conditions: Fluo-4 calcium FLIPR, normalized to GLY14-Humanin 100 nM
Metric: pEC50
Answers are plain numbers, as −log10 of the molar value.

Recorded pEC50, per entry:
1) CNCCNC(=O)[C@H]1[C@H](C(=O)NCc2nc(C(C)=O)cs2)[C@@H]2C=C[C@H]1C21CC1 (racemic) [Example 396]
6.06
2) O=C(NCCCCN1CCCC1)[C@H]1[C@H](C(=O)Nc2cc(F)c(Br)c(F)c2)[C@@H]2C=C[C@H]1C21CC1 [Example 393]
7.80
3) CC(C)(C)OC(=O)NCCNC(=O)C1C(C(=O)Nc2ccc(Br)cc2)C2C=CC1C21CC1 (stereo not shown) [Example 27]
5.71
4) Cc1ccc(CCNC(=O)C2C(C(=O)NCCCCN3CCCC3)C3C=CC2C32CC2)cc1 (stereo not shown) [Example 381]
7.52
5) Cc1ccc(CNC(=O)[C@H]2[C@H](C(=O)NCCCCN3CCCC3)[C@H]3C=C[C@@H]2C32CC2)o1 (racemic) [Example 137]
6.72

Moving on to another compound below.
Given O=C(NCCc1ccccn1)[C@H]1[C@H](C(=O)NCCc2ccc(Cl)cc2)[C@@H]2C=C[C@H]1C21CC1 [Example 389] , state its recorded pEC50. 6.26
